Consider the following compounds; for each one, report its 1A2*.
- assayed_system: UniProt:P05177
- Sequence (P05177 whole entry): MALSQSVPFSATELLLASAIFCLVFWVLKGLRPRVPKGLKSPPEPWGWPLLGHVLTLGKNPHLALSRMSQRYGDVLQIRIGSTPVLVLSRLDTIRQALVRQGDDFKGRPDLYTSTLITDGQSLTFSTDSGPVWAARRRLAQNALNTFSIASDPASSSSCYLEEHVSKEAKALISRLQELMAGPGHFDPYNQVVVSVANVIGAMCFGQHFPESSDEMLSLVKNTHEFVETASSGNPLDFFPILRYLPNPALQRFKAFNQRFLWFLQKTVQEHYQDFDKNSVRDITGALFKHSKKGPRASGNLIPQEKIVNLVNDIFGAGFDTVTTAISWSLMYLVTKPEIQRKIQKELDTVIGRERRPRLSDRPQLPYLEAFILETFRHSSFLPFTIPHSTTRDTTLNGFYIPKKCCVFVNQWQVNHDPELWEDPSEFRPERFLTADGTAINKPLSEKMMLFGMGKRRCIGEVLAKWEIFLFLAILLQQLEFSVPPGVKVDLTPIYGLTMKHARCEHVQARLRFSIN
- assay_info: CYP450 panel, 1A2
- Format: in vitro ADME
- setup_conditions: 10 μM; substrate phenacetin
One number for each entry.

Please review the following examples before continuing.
CNS(=O)(=O)Nc1nccc(Cc2c(C)c3ccc(Oc4ncccn4)cc3oc2=O)c1F [Reference 2, reference compound]	0.8
CNS(=O)(=O)Nc1cccc(Cc2c(C)c3ccc(OC(=O)N(C)C)cc3oc2=O)c1F	0.3

Report 1A2* for each item below.
1. CNS(=O)(=O)Nc1cccc(Cc2c(CNc3ccn[nH]3)c3ccc(OC(=O)N(C)C)cc3oc2=O)c1F
2. CNS(=O)(=O)Nc1cccc(Cc2c(CN3CCNCC3)c3ccc(OC(=O)N(C)C)cc3oc2=O)c1F

stdout:
1. 13.0
2. 0.4

----------
- assay_info: Single dose PK profile (plasma and tumor) in Colon26 tumor bearing mice
- Assay type: in vivo
- setup_conditions: female, mouse, po, 25 mg/kg; tumor; 25 mpk p.o.
Would you kindly list AUC(0-t) for each of these molecules?
One number for each entry, in ng·h/mL.

CNS(=O)(=O)Nc1cccc(Cc2c(CN3CCC3)c3ccc(OC(=O)N(C)C)cc3oc2=O)c1F	3460

Next item in the queue.
stdin: # AUC(0-t) lookup, item `CNS(=O)(=O)Nc1cccc(Cc2c(CN(C)C)c3ccc(OC(=O)N(C)C)cc3oc2=O)c1F`
stdout: 4890

----------
- assay_info: Single dose PK profile (plasma and tumor) in Colon26 tumor bearing mice
- Assay type: in vivo
- setup_conditions: female, mouse, po, 25 mg/kg; tumor; 25 mpk p.o.
Consider the following molecules; for each one, report its Cmax.
One number for each entry, in ng/mL.

CNS(=O)(=O)Nc1cccc(Cc2c(CN3CCC3)c3ccc(OC(=O)N(C)C)cc3oc2=O)c1F [Compound 197]	1920

Next:
stdin: Endpoint output: Cmax of CNS(=O)(=O)Nc1cccc(Cc2c(CN(C)C)c3ccc(OC(=O)N(C)C)cc3oc2=O)c1F [Compound 9] . Value?
stdout: 4580

----------
- assayed_system: UniProtKB P08684
- Sequence (P08684 whole entry): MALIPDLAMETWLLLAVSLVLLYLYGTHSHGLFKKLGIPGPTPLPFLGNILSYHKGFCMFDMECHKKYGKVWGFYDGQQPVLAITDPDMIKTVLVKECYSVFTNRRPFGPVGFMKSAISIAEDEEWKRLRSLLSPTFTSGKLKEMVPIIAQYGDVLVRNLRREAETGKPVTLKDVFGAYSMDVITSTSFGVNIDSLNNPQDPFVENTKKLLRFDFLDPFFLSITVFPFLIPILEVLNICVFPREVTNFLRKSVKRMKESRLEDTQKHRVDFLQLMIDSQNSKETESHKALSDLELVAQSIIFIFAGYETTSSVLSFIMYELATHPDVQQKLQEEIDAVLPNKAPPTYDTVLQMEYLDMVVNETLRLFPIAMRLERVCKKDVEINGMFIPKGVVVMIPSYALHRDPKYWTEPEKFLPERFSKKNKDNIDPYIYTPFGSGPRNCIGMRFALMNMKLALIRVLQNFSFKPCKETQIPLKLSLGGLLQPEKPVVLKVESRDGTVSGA
- assay_info: CYP450 panel, 3A4
- setup_conditions: 10 μM; substrate midazolam
Each entry gets 0.0 if its 3A4* stays under 30, and 1.0 if its 3A4* is 30 or above.

Solved entries (count: 8):
CNS(=O)(=O)Nc1cccc(Cc2c(CNCC#N)c3ccc(OC(=O)N(C)C)cc3oc2=O)c1F [Compound 13]	0.0
CNS(=O)(=O)Nc1nccc(Cc2c(C)c3ccc(Oc4ncccn4)cc3oc2=O)c1F [Reference 2, reference compound]	0.0
CNS(=O)(=O)Nc1cccc(Cc2c(CN3CCN(C)CC3)c3ccc(OC(=O)N(C)C)cc3oc2=O)c1F [Compound 15]	0.0
CNS(=O)(=O)Nc1cccc(Cc2c(CN3CCNCC3)c3ccc(OC(=O)N(C)C)cc3oc2=O)c1F [Compound 10]	0.0
CNS(=O)(=O)Nc1cccc(Cc2c(CN(C)C)c3ccc(OC(=O)N(C)C)cc3oc2=O)c1F [Compound 9]	0.0
Cn1cnc2c(F)c(Nc3ccc(Br)cc3Cl)c(C(=O)NOCCO)cc21 [Reference 1, Selumetinib, reference compound]	0.0
CNS(=O)(=O)Nc1cccc(Cc2c(CN3CCN(Cc4ccccc4)CC3)c3ccc(OC(=O)N(C)C)cc3oc2=O)c1F [Compound 16]	1.0
CNS(=O)(=O)Nc1cccc(Cc2c(CNC3CC3)c3ccc(OC(=O)N(C)C)cc3oc2=O)c1F [Compound 11]	1.0

Okay, now this molecule:
stdin: In plain terms: is recorded 3A4* at least 30 for C#CCNCc1c(Cc2cccc(NS(=O)(=O)NC)c2F)c(=O)oc2cc(OC(=O)N(C)C)ccc12 [Compound 14] ?
stdout: 0.0

----------
- assayed_system: CYP450 2D6 (Homo sapiens, UniProt P10635)
- Sequence (P10635 whole entry): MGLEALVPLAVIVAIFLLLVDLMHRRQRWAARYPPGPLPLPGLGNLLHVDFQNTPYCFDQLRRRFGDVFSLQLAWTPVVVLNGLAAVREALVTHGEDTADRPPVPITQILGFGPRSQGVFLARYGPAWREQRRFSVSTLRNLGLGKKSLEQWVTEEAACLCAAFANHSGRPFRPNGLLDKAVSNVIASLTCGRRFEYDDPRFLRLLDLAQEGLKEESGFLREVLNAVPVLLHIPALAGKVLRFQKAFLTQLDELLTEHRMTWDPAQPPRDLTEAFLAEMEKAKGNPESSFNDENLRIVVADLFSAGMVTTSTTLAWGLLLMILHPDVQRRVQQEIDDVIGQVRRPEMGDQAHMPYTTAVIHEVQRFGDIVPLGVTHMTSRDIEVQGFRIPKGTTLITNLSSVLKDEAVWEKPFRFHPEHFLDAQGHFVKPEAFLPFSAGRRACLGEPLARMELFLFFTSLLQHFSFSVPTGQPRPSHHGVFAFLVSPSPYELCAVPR
- assay_info: CYP450 panel, 2D6
- setup_conditions: 10 μM; substrate dextromethophan
Could you please report measured 2D6* for the items listed next?
Answers are plain numbers.

// below: answered compounds
CNS(=O)(=O)Nc1cccc(Cc2c(CNCC#N)c3ccc(OC(=O)N(C)C)cc3oc2=O)c1F	−2.6
CNS(=O)(=O)Nc1cccc(Cc2c(CNC3CC3)c3ccc(OC(=O)N(C)C)cc3oc2=O)c1F	9.8
Cn1cnc2c(F)c(Nc3ccc(Br)cc3Cl)c(C(=O)NOCCO)cc21 [Reference 1, Selumetinib, reference compound]	5.0
CNS(=O)(=O)Nc1cccc(Cc2c(CN(C)C)c3ccc(OC(=O)N(C)C)cc3oc2=O)c1F	−3.7
CNS(=O)(=O)Nc1cccc(Cc2c(C)c3ccc(OC(=O)N(C)C)cc3oc2=O)c1F	−7.4

Give 2D6* for each listed item.
1. CNS(=O)(=O)Nc1cccc(Cc2c(CN3CCN(C)CC3)c3ccc(OC(=O)N(C)C)cc3oc2=O)c1F
2. C#CCNCc1c(Cc2cccc(NS(=O)(=O)NC)c2F)c(=O)oc2cc(OC(=O)N(C)C)ccc12

stdout:
[0.5, 6.6]

----------
For each entry below, report its Tmax value.
- assay_info: Single dose PK profile (plasma and tumor) in Colon26 tumor bearing mice
- Assay type: in vivo
- setup_conditions: female, mouse, po, 25 mg/kg; tumor; 25 mpk p.o.
Answers are plain numbers, in min.

CNS(=O)(=O)Nc1cccc(Cc2c(CN(C)C)c3ccc(OC(=O)N(C)C)cc3oc2=O)c1F	30

stdin: Which measured Tmax value corresponds to `CNS(=O)(=O)Nc1cccc(Cc2c(CN3CCC3)c3ccc(OC(=O)N(C)C)cc3oc2=O)c1F` ?
stdout: 60

----------
- assayed_system: CYP450 2B6 (Homo sapiens, UniProt P20813)
- Sequence (P20813 1-491): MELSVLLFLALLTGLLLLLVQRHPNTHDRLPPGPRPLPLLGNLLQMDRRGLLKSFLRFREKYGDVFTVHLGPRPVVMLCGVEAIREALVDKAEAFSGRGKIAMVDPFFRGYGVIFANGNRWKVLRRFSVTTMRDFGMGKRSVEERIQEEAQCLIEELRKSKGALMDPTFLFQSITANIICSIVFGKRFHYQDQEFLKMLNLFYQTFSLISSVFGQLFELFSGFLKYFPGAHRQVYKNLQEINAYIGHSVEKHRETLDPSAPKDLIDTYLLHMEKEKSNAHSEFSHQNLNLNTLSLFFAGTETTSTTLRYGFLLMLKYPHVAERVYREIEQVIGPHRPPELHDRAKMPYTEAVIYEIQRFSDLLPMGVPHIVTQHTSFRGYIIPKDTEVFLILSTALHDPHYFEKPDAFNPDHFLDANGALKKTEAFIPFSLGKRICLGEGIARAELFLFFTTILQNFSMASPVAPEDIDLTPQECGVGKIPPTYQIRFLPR
- assay_info: CYP450 panel, 2B6
- setup_conditions: 10 μM; substrate bupropion
Please provide measured 2B6* for the entries that follow.
Give bare numbers.

Known results for molecules:
CNS(=O)(=O)Nc1cccc(Cc2c(C)c3ccc(OC(=O)N(C)C)cc3oc2=O)c1F	28.5
CNS(=O)(=O)Nc1cccc(Cc2c(CNc3ccn[nH]3)c3ccc(OC(=O)N(C)C)cc3oc2=O)c1F	14.9
CNS(=O)(=O)Nc1cccc(Cc2c(CN3CCN(Cc4ccccc4)CC3)c3ccc(OC(=O)N(C)C)cc3oc2=O)c1F	11.6

Batch request: 2B6* for each of the following molecules.
1. C#CCNCc1c(Cc2cccc(NS(=O)(=O)NC)c2F)c(=O)oc2cc(OC(=O)N(C)C)ccc12
2. Cn1cnc2c(F)c(Nc3ccc(Br)cc3Cl)c(C(=O)NOCCO)cc21 [Reference 1, Selumetinib, reference compound]
3. CNS(=O)(=O)Nc1cccc(Cc2c(CN3CCN(C)CC3)c3ccc(OC(=O)N(C)C)cc3oc2=O)c1F

stdout:
15.6
30.2
16.3

----------
- assayed_system: CYP450 2C9 (Homo sapiens)
- Sequence (P11712 whole entry): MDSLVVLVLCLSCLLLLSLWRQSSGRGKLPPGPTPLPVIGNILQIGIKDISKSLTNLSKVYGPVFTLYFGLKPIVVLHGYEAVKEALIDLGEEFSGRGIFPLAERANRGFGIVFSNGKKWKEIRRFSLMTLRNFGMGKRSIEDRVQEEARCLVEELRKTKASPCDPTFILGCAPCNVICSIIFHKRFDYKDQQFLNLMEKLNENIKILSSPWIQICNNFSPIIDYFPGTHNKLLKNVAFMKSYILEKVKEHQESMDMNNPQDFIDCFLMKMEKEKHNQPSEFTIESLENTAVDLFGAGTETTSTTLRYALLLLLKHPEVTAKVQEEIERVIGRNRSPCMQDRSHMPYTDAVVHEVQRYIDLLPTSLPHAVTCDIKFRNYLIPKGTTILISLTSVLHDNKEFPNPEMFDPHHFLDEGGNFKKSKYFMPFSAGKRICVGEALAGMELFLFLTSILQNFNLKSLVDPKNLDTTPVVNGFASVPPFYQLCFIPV
- assay_info: CYP450 panel, 2C9; note: unit not given here
- setup_conditions: 10 μM; substrate Diclofenac
Threshold-based label: 2C9* under 7 gives y, 2C9* not under 7 gives n.

Would you please look over these solved cases?
CNS(=O)(=O)Nc1cccc(Cc2c(CN3CCNCC3)c3ccc(OC(=O)N(C)C)cc3oc2=O)c1F [Compound 10]	y
Cn1cnc2c(F)c(Nc3ccc(Br)cc3Cl)c(C(=O)NOCCO)cc21 [Reference 1, Selumetinib, reference compound]	n
Nc1ccc(S(=O)(=O)Nc2ccnn2-c2ccccc2)cc1 [Sulfaphenazole]	n

stdin: Please check: 2C9* for CNS(=O)(=O)Nc1cccc(Cc2c(C)c3ccc(OC(=O)N(C)C)cc3oc2=O)c1F [Compound 7] , strictly under 7 or not?
stdout: n

stdin: CNS(=O)(=O)Nc1cccc(Cc2c(CNc3ccn[nH]3)c3ccc(OC(=O)N(C)C)cc3oc2=O)c1F [Compound 12] , same question.
stdout: n

stdin: Cool, now CNS(=O)(=O)Nc1cccc(Cc2c(CNC3CC3)c3ccc(OC(=O)N(C)C)cc3oc2=O)c1F [Compound 11]
stdout: n

stdin: Continue with CNS(=O)(=O)Nc1cccc(Cc2c(CNCC#N)c3ccc(OC(=O)N(C)C)cc3oc2=O)c1F [Compound 13]
stdout: y
